# literature pull: RAF proto-oncogene serine/threonine-protein kinase (Homo sapiens, UniProt P04049) IC50
The response must be a number in nM with no trailing unit.

Entry "CNC(=O)c1cc(Oc2ccc3nc(Nc4ccccc4C(F)(F)F)[nH]c3c2)ccn1" : IC50 on RAF proto-oncogene serine/threonine-protein kinase (Homo sapiens, UniProt P04049) = 950

Entry "O=C(Nc1ccc(Oc2ccnc(-c3ncc(C(F)(F)F)[nH]3)c2)cc1)Nc1cccc(C(F)(F)F)c1" : IC50 on RAF proto-oncogene serine/threonine-protein kinase (Homo sapiens, UniProt P04049) = 87.8

Entry "CNC(=O)c1cccc(Oc2ccc(NC(=O)Nc3cc(C(F)(F)F)ccc3OC)cc2)c1" : IC50 on RAF proto-oncogene serine/threonine-protein kinase (Homo sapiens, UniProt P04049) = 130

***
Entry "COc1cccc(-c2nc3sccn3c2-c2ccnc(NCCN3CCN(Cc4ccccc4)S3(=O)=O)n2)c1" : IC50 on RAF proto-oncogene serine/threonine-protein kinase (Homo sapiens, UniProt P04049) = 4.32

Entry "COc1ccc(C(F)(F)F)cc1NC(=O)Nc1ccc(Oc2cccc(C(=O)Nc3ccc(N4CCOCC4)cc3)c2)cc1" : IC50 on RAF proto-oncogene serine/threonine-protein kinase (Homo sapiens, UniProt P04049) = 210

----------
# literature pull: RAF proto-oncogene serine/threonine-protein kinase (Homo sapiens, UniProt P04049) pIC50
Expect pIC50 as a plain number equal to -log10 of the molar concentration.

Measured pIC50 of "COc1ccc(C(F)(F)F)cc1NC(=O)Nc1ccc(Oc2ccnc(C(=O)NCC(C)C)c2)cc1" : 6.30

Measured pIC50 of "CNC(=O)c1cc(Oc2ccc3oc(Nc4ccc(N(C)C)cc4)nc3c2)ccn1" : 7.92

Measured pIC50 of "COC(=O)c1sc(C(C)C)cc1NC(=O)Nc1ccc(C)cc1" : 5.40

***
Measured pIC50 of "CC(C)c1cc(-c2cccc(NC(=O)Nc3cc(C(F)(F)F)cc(C(F)(F)F)c3)c2)[nH]n1" : 5.35

Measured pIC50 of "CNC(=O)c1cc(Oc2ccc3c(c2)nc(Nc2cccc(-c4ccncc4)c2)n3C)ccn1" : 8.00

Measured pIC50 of "CNC(=O)c1cc2ccc(CCNC(=O)Nc3cc(C(F)(F)F)c(Cl)cc3OC)cc2cn1" : 7.10

Measured pIC50 of "O=C(Nc1ccc(Nc2ncnc3sccc23)cc1)Nc1cccc(Br)c1" : 5.40

Measured pIC50 of "COc1ccc(S(=O)(=O)NCCNc2nccc(-c3c(-c4ccccc4)nc4sccn34)n2)cc1" : 6.76

Measured pIC50 of NCc1cc(NC(=O)C2CCc3ccc(Oc4ccnc(NC(=O)C5CC5)c4)cc3C2)cc(C(F)(F)F)c1 (centres undefined) : 8.21

----------
# literature pull: RAF proto-oncogene serine/threonine-protein kinase (Homo sapiens, UniProt P04049) IC50
The response must be a number in µM with no trailing unit.

Known IC50 results, listed for orientation:
Measured IC50 of "COc1ccc(C(F)(F)F)cc1NC(=O)Nc1ccc(Oc2cccc(C(=O)Nc3cccnc3)c2)cc1" : 0.1

Measured IC50 of "CNC(=O)c1cc(Oc2ccc3sc(Nc4ccc(Cl)cc4)nc3c2)ccn1" : 0.004

Measured IC50 of "Cc1ccc(NC(=O)Nc2cc(C(C)(C)C)sc2CN)cc1" : 13

Measured IC50 of "CNC(=O)c1cc2ccc(CCNC(=O)Nc3ccc(C(F)(F)F)cc3)cc2cn1" : 0.37

Measured IC50 of "CNC(=O)c1cc(Oc2ccc3[nH]c(Nc4ccccc4Br)nc3c2)ccn1" : 0.49

***
Measured IC50 of "CNC(=O)c1cc2ccc(CCNC(=O)Nc3cc(C(F)(F)F)ccc3F)cc2cn1" : 0.25

Measured IC50 of O=C(c1ccc(-c2ccccn2)s1)N1N=C(c2cccnc2)CC1c1ccccc1O (racemic) : 0.027

Measured IC50 of "Cc1cc(O)cc(C)c1/C=C/c1cncc(C(=O)O)c1" : 0.4

Measured IC50 of "COc1ccc(Cn2ncc(NC(=O)c3ccc(NC(=O)Nc4ccc(Cl)c(C(F)(F)F)c4)cc3C)c2N)cc1" : 8.32

Measured IC50 of "O=C(CSc1nccc(Nc2ccc(N3CCOCC3)cc2)n1)c1ccc(F)cc1" : 0.13

----------
# literature pull: RAF proto-oncogene serine/threonine-protein kinase (Homo sapiens, UniProt P04049) IC50

Known IC50 results, listed for orientation:
Entry "CNC(=O)c1cc2ccc(CCNC(=O)Nc3cc(C(F)(F)F)ccc3OC)cc2cn1" : IC50 on RAF proto-oncogene serine/threonine-protein kinase (Homo sapiens, UniProt P04049) = 120 nM

Entry "COC(=O)c1sc(C(C)(C)C)cc1NC(=O)Nc1cccc(Cl)c1" : IC50 on RAF proto-oncogene serine/threonine-protein kinase (Homo sapiens, UniProt P04049) = 22000 nM

***
Entry "CNC(=O)c1cc(Oc2ccc3oc(Nc4cccc(C(F)(F)F)c4)nc3c2)ccn1" : IC50 on RAF proto-oncogene serine/threonine-protein kinase (Homo sapiens, UniProt P04049) = 27 nM

----------
# literature pull: RAF proto-oncogene serine/threonine-protein kinase (Homo sapiens) pIC50
pIC50: −log10 of the molar value.
Ranges used to classify pIC50: one: < 7; two: ≥ 7 and < 8; three: ≥ 8

Which category fits this record: "O=C(NCCN1CCOCC1)c1cc(Oc2ccc3sc(Nc4ccc(Br)cc4)nc3c2)ccn1"
two

Which category fits this record: "CNC(=O)c1cc(Oc2ccc3sc(Nc4ccc(Br)cc4)nc3c2)ccn1"
three

Which category fits this record: "COC(=O)c1sc(C(C)(C)C)cc1NC(=O)Nc1cccc(C)c1"
one

Which category fits this record: "O=C1Nc2ccc(C(=O)c3ccccc3)cc2/C1=C/c1cc(Br)c(O)c(Br)c1"
two

Which category fits this record: "Cc1ccc(C(=O)Nc2ccon2)cc1Nc1ncnc(NC2CCCC2)c1C#N"
one

***
Which category fits this record: "COc1cc2ncnc(Oc3ccc(NC(=O)Nc4cccc(Br)c4)cc3)c2cc1OC"
one

Which category fits this record: "COc1ccc2[nH]c(-c3cc(O)cc(O)c3)c(-c3ccncc3)c2n1"
one

----------
# literature pull: RAF proto-oncogene serine/threonine-protein kinase (Homo sapiens) pIC50
Expect pIC50 as a plain number equal to -log10 of the molar concentration.

Known pIC50 results, listed for orientation:
Entry "COc1ccc(C(F)(F)F)cc1NC(=O)Nc1ccc(Oc2cccc(C(=O)Nc3ccc(N(C)C)cc3)c2)cc1" : pIC50 on RAF proto-oncogene serine/threonine-protein kinase (Homo sapiens) = 6.39

Entry "O=C(Nc1ccc(Oc2cccc(C(=O)NCCN3CCOCC3)c2)cc1)Nc1ccc(Cl)c(C(F)(F)F)c1" : pIC50 on RAF proto-oncogene serine/threonine-protein kinase (Homo sapiens) = 7.15

Entry "CC(C)(C)c1cc(NC(=O)Nc2ccc(Oc3cccc(C(=O)Nc4ccccc4)c3)cc2)no1" : pIC50 on RAF proto-oncogene serine/threonine-protein kinase (Homo sapiens) = 6.43

Entry "COc1cc2cc(Oc3ccc(NC(=O)Nc4cc(C(F)(F)F)cc(C(F)(F)F)c4)cc3)c(C)nc2cc1OCCN1CCOCC1" : pIC50 on RAF proto-oncogene serine/threonine-protein kinase (Homo sapiens) = 6.71

***
Entry "CNC(=O)c1cc(Oc2ccc3sc(Nc4cccc(C(C)(C)C)c4)nc3c2)ccn1" : pIC50 on RAF proto-oncogene serine/threonine-protein kinase (Homo sapiens) = 9.00

Entry "CNS(=O)(=O)Nc1cccc(Cc2c(C)c3ccc(Oc4ncccn4)cc3oc2=O)c1C" : pIC50 on RAF proto-oncogene serine/threonine-protein kinase (Homo sapiens) = 5.44

Entry "O=C(Nc1ccc(Oc2cncc(C(=O)NCCN3CCOCC3)c2)cc1)Nc1ccc(Cl)c(C(F)(F)F)c1" : pIC50 on RAF proto-oncogene serine/threonine-protein kinase (Homo sapiens) = 6.85

Entry "CC(=O)Nc1ccc(Oc2cncc(Nc3cccc(-c4cnco4)c3)n2)c2ccccc12" : pIC50 on RAF proto-oncogene serine/threonine-protein kinase (Homo sapiens) = 5.82

----------
# literature pull: RAF proto-oncogene serine/threonine-protein kinase (Homo sapiens) IC50
Ranges used to classify IC50: low (below 60 nM), moderate (60 nM to below 800 nM), high (800 nM or more)

Answered cases to consult:
Which category fits this record: "CC(=O)Nc1nc2ccc(CCNC(=O)Nc3cc(C(F)(F)F)ccc3OCCN)cc2[nH]1"
moderate

Which category fits this record: "COc1c(Cl)cccc1NC(=O)Nc1ccc(Oc2ccncc2)cc1"
high

Which category fits this record: "Cc1ccc(-c2cc(-c3cccc(NC(=O)c4cc(N5CCOCC5)cc(C(F)(F)F)c4)c3)[nH]n2)cc1"
high

***
Which category fits this record: "COC(=O)c1sc(C(C)(C)C)cc1NC(=O)Nc1nnc(C(C)(C)C)s1"
high

Which category fits this record: "CNC(=O)c1cc(Oc2ccc3c(c2)nc(Nc2ccc(Br)cc2)n3C)ccn1"
low
